- measurement-setup: in ethanol, 283.15 K
measure-name: solubility (mole fraction)
Answers are plain numbers.

Please fill in: solubility (mole fraction) reported for O=C1CCc2cc(O)ccc2N1 = 0.00242

====

- measurement-setup: in methyl acetate, 303.15 K
measure-name: solubility (mole fraction)
One number for each entry.

Please fill in: solubility (mole fraction) reported for O=C1CCc2cc(O)ccc2N1 = 0.00257

====

- measurement-setup: in n-butanol, 308.15 K
measure-name: solubility (mole fraction)
Numbers only.

Please fill in: solubility (mole fraction) reported for O=C1CCc2cc(O)ccc2N1 = 0.00409

====

- measurement-setup: in n-propanol, 323.15 K
measure-name: solubility (mole fraction)
Numbers only.

Please fill in: solubility (mole fraction) reported for O=C1CCc2cc(O)ccc2N1 = 0.00641

====

- measurement-setup: in ethyl acetate, 308.15 K
measure-name: solubility (mole fraction)

Please fill in: solubility (mole fraction) reported for O=C1CCc2cc(O)ccc2N1 = 0.00108

====

- measurement-setup: in n-propanol, 308.15 K
measure-name: solubility (mole fraction)
One number for each entry.

Please fill in: solubility (mole fraction) reported for O=C1CCc2cc(O)ccc2N1 = 0.00419

====

- measurement-setup: in acetonitrile, 278.15 K
measure-name: solubility (mole fraction)
Numbers only.

Please fill in: solubility (mole fraction) reported for O=C1CCc2cc(O)ccc2N1 = 0.000292

====

- measurement-setup: in n-propanol, 313.15 K
measure-name: solubility (mole fraction)

Please fill in: solubility (mole fraction) reported for O=C1CCc2cc(O)ccc2N1 = 0.00482

====

- measurement-setup: in acetonitrile, 318.15 K
measure-name: solubility (mole fraction)
Numbers only.

Please fill in: solubility (mole fraction) reported for O=C1CCc2cc(O)ccc2N1 = 0.00102

====

- measurement-setup: in THF, 288.15 K
measure-name: solubility (mole fraction)
Numbers only.

Please fill in: solubility (mole fraction) reported for O=C1CCc2cc(O)ccc2N1 = 0.00307

====

- measurement-setup: in methanol, 288.15 K
measure-name: solubility (mole fraction)
Numbers only.

Please fill in: solubility (mole fraction) reported for O=C1CCc2cc(O)ccc2N1 = 0.00309

====

- measurement-setup: in isobutanol, 308.15 K
measure-name: solubility (mole fraction)

Please fill in: solubility (mole fraction) reported for O=C1CCc2cc(O)ccc2N1 = 0.00316

====

- measurement-setup: in ethanol, 313.15 K
measure-name: solubility (mole fraction)

Please fill in: solubility (mole fraction) reported for O=C1CCc2cc(O)ccc2N1 = 0.00574

====

- measurement-setup: in methyl acetate, 298.15 K
measure-name: solubility (mole fraction)

Please fill in: solubility (mole fraction) reported for O=C1CCc2cc(O)ccc2N1 = 0.00231

====

- measurement-setup: in n-propanol, 278.15 K
measure-name: solubility (mole fraction)
Answers are plain numbers.

Please fill in: solubility (mole fraction) reported for O=C1CCc2cc(O)ccc2N1 = 0.00173

====

- measurement-setup: in n-butanol, 303.15 K
measure-name: solubility (mole fraction)
Numbers only.

Please fill in: solubility (mole fraction) reported for O=C1CCc2cc(O)ccc2N1 = 0.00357

====

- measurement-setup: in methyl acetate, 283.15 K
measure-name: solubility (mole fraction)
Answers are plain numbers.

Please fill in: solubility (mole fraction) reported for O=C1CCc2cc(O)ccc2N1 = 0.00172

====

- measurement-setup: in isobutanol, 323.15 K
measure-name: solubility (mole fraction)
One number for each entry.

Please fill in: solubility (mole fraction) reported for O=C1CCc2cc(O)ccc2N1 = 0.00493

====

- measurement-setup: in isopropanol, 308.15 K
measure-name: solubility (mole fraction)
One number for each entry.

Please fill in: solubility (mole fraction) reported for O=C1CCc2cc(O)ccc2N1 = 0.00471

====

- measurement-setup: in n-butanol, 323.15 K
measure-name: solubility (mole fraction)
Answers are plain numbers.

Please fill in: solubility (mole fraction) reported for O=C1CCc2cc(O)ccc2N1 = 0.00623

====

- measurement-setup: in isopropanol, 303.15 K
measure-name: solubility (mole fraction)
Answers are plain numbers.

Please fill in: solubility (mole fraction) reported for O=C1CCc2cc(O)ccc2N1 = 0.00395

====

- measurement-setup: in ethanol, 308.15 K
measure-name: solubility (mole fraction)

Please fill in: solubility (mole fraction) reported for O=C1CCc2cc(O)ccc2N1 = 0.00496

====

- measurement-setup: in ethyl acetate, 288.15 K
measure-name: solubility (mole fraction)
Give bare numbers.

Please fill in: solubility (mole fraction) reported for O=C1CCc2cc(O)ccc2N1 = 0.000792

====

- measurement-setup: in THF, 313.15 K
measure-name: solubility (mole fraction)
Give bare numbers.

Please fill in: solubility (mole fraction) reported for O=C1CCc2cc(O)ccc2N1 = 0.00526

====

- measurement-setup: in methanol, 283.15 K
measure-name: solubility (mole fraction)
Give bare numbers.

Please fill in: solubility (mole fraction) reported for O=C1CCc2cc(O)ccc2N1 = 0.0027

====

- measurement-setup: in n-butanol, 318.15 K
measure-name: solubility (mole fraction)
Give bare numbers.

Please fill in: solubility (mole fraction) reported for O=C1CCc2cc(O)ccc2N1 = 0.00543

====

- measurement-setup: in n-propanol, 298.15 K
measure-name: solubility (mole fraction)
Numbers only.

Please fill in: solubility (mole fraction) reported for O=C1CCc2cc(O)ccc2N1 = 0.00314

====

- measurement-setup: in isobutanol, 278.15 K
measure-name: solubility (mole fraction)

Please fill in: solubility (mole fraction) reported for O=C1CCc2cc(O)ccc2N1 = 0.00114

====

- measurement-setup: in methanol, 323.15 K
measure-name: solubility (mole fraction)

Please fill in: solubility (mole fraction) reported for O=C1CCc2cc(O)ccc2N1 = 0.00838

====

- measurement-setup: in n-propanol, 318.15 K
measure-name: solubility (mole fraction)
Answers are plain numbers.

Please fill in: solubility (mole fraction) reported for O=C1CCc2cc(O)ccc2N1 = 0.00554

====

- measurement-setup: in methyl acetate, 308.15 K
measure-name: solubility (mole fraction)
Numbers only.

Please fill in: solubility (mole fraction) reported for O=C1CCc2cc(O)ccc2N1 = 0.00287

====

- measurement-setup: in methyl acetate, 293.15 K
measure-name: solubility (mole fraction)

Please fill in: solubility (mole fraction) reported for O=C1CCc2cc(O)ccc2N1 = 0.00209

====

- measurement-setup: in n-propanol, 293.15 K
measure-name: solubility (mole fraction)

Please fill in: solubility (mole fraction) reported for O=C1CCc2cc(O)ccc2N1 = 0.0027

====

- measurement-setup: in isopropanol, 278.15 K
measure-name: solubility (mole fraction)
Answers are plain numbers.

Please fill in: solubility (mole fraction) reported for O=C1CCc2cc(O)ccc2N1 = 0.00186

====

- measurement-setup: in acetonitrile, 288.15 K
measure-name: solubility (mole fraction)
Numbers only.

Please fill in: solubility (mole fraction) reported for O=C1CCc2cc(O)ccc2N1 = 0.000403

====

- measurement-setup: in acetonitrile, 303.15 K
measure-name: solubility (mole fraction)

Please fill in: solubility (mole fraction) reported for O=C1CCc2cc(O)ccc2N1 = 0.000668

====

- measurement-setup: in ethyl acetate, 298.15 K
measure-name: solubility (mole fraction)
One number for each entry.

Please fill in: solubility (mole fraction) reported for O=C1CCc2cc(O)ccc2N1 = 0.000927

====

- measurement-setup: in n-butanol, 278.15 K
measure-name: solubility (mole fraction)
Give bare numbers.

Please fill in: solubility (mole fraction) reported for O=C1CCc2cc(O)ccc2N1 = 0.00181

====

- measurement-setup: in methyl acetate, 313.15 K
measure-name: solubility (mole fraction)
Give bare numbers.

Please fill in: solubility (mole fraction) reported for O=C1CCc2cc(O)ccc2N1 = 0.00316

====

- measurement-setup: in n-propanol, 288.15 K
measure-name: solubility (mole fraction)
Answers are plain numbers.

Please fill in: solubility (mole fraction) reported for O=C1CCc2cc(O)ccc2N1 = 0.00236

====

- measurement-setup: in acetonitrile, 298.15 K
measure-name: solubility (mole fraction)
One number for each entry.

Please fill in: solubility (mole fraction) reported for O=C1CCc2cc(O)ccc2N1 = 0.000576

====

- measurement-setup: in isobutanol, 288.15 K
measure-name: solubility (mole fraction)
Numbers only.

Please fill in: solubility (mole fraction) reported for O=C1CCc2cc(O)ccc2N1 = 0.00162

====

- measurement-setup: in methyl acetate, 318.15 K
measure-name: solubility (mole fraction)
One number for each entry.

Please fill in: solubility (mole fraction) reported for O=C1CCc2cc(O)ccc2N1 = 0.00352

====

- measurement-setup: in THF, 318.15 K
measure-name: solubility (mole fraction)
One number for each entry.

Please fill in: solubility (mole fraction) reported for O=C1CCc2cc(O)ccc2N1 = 0.00591

====

- measurement-setup: in ethanol, 318.15 K
measure-name: solubility (mole fraction)
One number for each entry.

Please fill in: solubility (mole fraction) reported for O=C1CCc2cc(O)ccc2N1 = 0.00664

From: BigSolDB 2.1
